Test system: NCI-H460 lung
Test: NCI tumour cell line growth inhibition, 48 h
Assign TGI to each entry below.

These recorded examples may help you get a feel for the data.
INSERT INTO assay_data (compound, measured_metric, reported_result) VALUES
  ('C=C1C(=O)C[C@H]2C(=C)C(=O)O[C@@H]2C2C1CC[C@@]2(C)O (some centres not stated)', 'TGI', '43.1 µM'),
  ('CN(C)CCCNC(=O)c1cc2[nH]c3c(cnc4ccc([N+](=O)[O-])cc43)c(=O)c2n1C', 'TGI', '26 µM'),
  ('NNC(=S)N/N=C(\CC1OC(=O)c2ccccc21)c1ccccc1O (configuration not stated)', 'TGI', '> 100 µM'),
  ('COc1cc(/C=C2\C[C@H]3[C@@H]4CCc5cc(O)ccc5[C@H]4CC[C@]3(C)C2=O)cc(OC)c1OC', 'TGI', '> 100 µM');

Please go through the list and note TGI for each compound.
1. C[N+](CCCl)(CCCl)Cc1cccc2cccc([N+](=O)[O-])c12
2. CCCCCCNC(=O)c1cc(NCc2cc(O)ccc2O)ccc1O
3. CC(C)CC1C(=O)NCCC(NC(=O)C(Cc2ccc(OC(C)(C)C)cc2)NC(=O)OC(C)(C)C)C(=O)NC(Cc2ccccc2)C(=O)NC(Cc2ccccc2)NC1=O (configuration not stated)
4. O=C1C(Cl)N(c2ccc(Cl)cc2)C1c1c[nH]c2ccccc12 (configuration not stated)

> 100 µM
82.3 µM
15 µM
30.1 µM

Please go through the list and note TGI for each compound.
1. COc1cc(OC)c(-c2ccc(OCc3ccccc3)c3c(OC)cc(C)cc23)c2c1C(C)=N[C@H](C)C2
2. CCCn1c2ccccc2c2ccc3c(c21)C(=O)C=CC3=O
3. C=COCCCOc1ccccc1

3.84 µM
> 10 µM
> 100 µM

---

Tested on: NCI-H226 lung
Test: NCI tumour cell line growth inhibition, 48 h
measured_metric: TGI

These recorded examples may help you get a feel for the data.
INSERT INTO results (compound, measured_metric, reported_result) VALUES
  ('S=C(Nc1ccccc1)N(/N=C/C=C/c1ccccc1)c1nnc(-c2ccccc2)c(-c2ccccc2)n1', 'TGI', '> 100 µM'),
  ('O=C1C2CC=CCC2C(=O)N1n1c(Cc2ccc(Cl)cc2)n[nH]c1=O (centres undefined)', 'TGI', '> 100 µM'),
  ('COc1ccc(/C=C(/C(=O)N2CCN(c3ccccc3)CC2)c2cc(OC)c(OC)c(OC)c2)cc1O', 'TGI', '> 100 µM'),
  ('O=C(Nc1nc2ccc(C(F)(F)F)cc2s1)c1cc(Cl)ccc1O', 'TGI', '11.4 µM'),
  ('C=C(c1nc2ccc(Cl)cc2[nH]c1=O)C(O)c1ccc(C(O)C(=O)c2nc3ccc(Cl)cc3[nH]c2=O)cc1 (centres undefined)', 'TGI', '> 100 µM');

Please go through the list and note TGI for each compound.
1. O=C(OC(CNc1cc(=O)n(Cc2ccccc2)c(=O)n1Cc1ccccc1)CN1CCCC1)c1ccccc1 (centres undefined)
2. S=C1NC2(CCCCCC2)NN1c1ccccc1
3. COc1cc(C#CC(=O)OC/C=C/c2ccc3c(c2)OCO3)cc(OC)c1OC
4. CCCCc1c(N(C)C)c(OC(C)=O)c(-c2cn(C)c3ccccc23)oc1=O

["> 100 µM", "> 100 µM", "48.5 µM", "36.8 µM"]

---

Test system: M19-MEL melanoma
Test: NCI tumour cell line growth inhibition, 48 h
Assign TGI to each entry below.

These recorded examples may help you get a feel for the data.
INSERT INTO measurements (molecule, measured_metric, reported_result) VALUES
  ('N#CC(N)(C(=O)CCC(=O)Nc1cccc(Cl)c1)c1ccc(Cl)cc1 (stereo not given)', 'TGI', '> 100 µM'),
  ('O=c1[nH]c2c(nc1NC13CC4CC(CC(C4)C1)C3)c(=O)oc1ccccc12', 'TGI', '> 100 µM'),
  ('Cc1ccc(Cc2c(=O)[nH]nc3ccccc23)cc1', 'TGI', '> 100 µM');

Please go through the list and note TGI for each molecule.
1. O=C(O)c1ccc(Nc2c3ccccc3nc3ccccc23)cc1
2. COc1ccc(N2C(=O)/C(=C(\C)c3cc4ccccc4oc3=O)N=C2c2cc([N+](=O)[O-])ccc2Cl)cc1
3. [N-]=[N+]=NC12CC3C4CC5CC3C(C1)C(C5)C4C2
4. O=[N+]([O-])c1ccc(C2=Nn3cnnc3SC2)o1

1. > 100 µM
2. > 100 µM
3. > 100 µM
4. 13.8 µM

Please go through the list and note TGI for each molecule.
1. Cc1ccc(NC(=O)C(=O)C(C(=O)c2ccc3ccccc3c2)C2OC(=O)c3ccccc32)cc1C (stereo not given)
2. CC(=O)N(C)c1ccc(Nc2cc(C)[nH]c3ccc4ncnc4c23)cc1
3. O=c1[nH]c(=O)n(C2OC(CO)C(O)C2O)cc1NN=NCc1ccccc1 (stereo not given)

20.6 µM
20.1 µM
> 100 µM

---

System: KM20L2 colon
Experiment: NCI tumour cell line growth inhibition, 48 h
Assign TGI to each entry below.

These recorded examples may help you get a feel for the data.
INSERT INTO results (molecule, study_system, reported_result) VALUES
  ('O=C(/C=C/c1ccccc1O)c1ccccc1O', 'KM20L2 colon', '> 100 µM'),
  ('N#CC(N)(C(=O)CCC(=O)Nc1cccc(Cl)c1)c1ccc(Cl)cc1 (stereo unspecified)', 'KM20L2 colon', '> 100 µM'),
  ('CCOC(=O)C1(C#N)C(c2ccccc2)CC(O)(c2ccc(OC)cc2)C(C(=O)c2ccc(OC)cc2)C1c1ccccc1 (stereo unspecified)', 'KM20L2 colon', '> 100 µM'),
  ('COc1ccc(C2C(Cl)C(=O)N2n2cnc3ccccc3c2=O)cc1 (stereo unspecified)', 'KM20L2 colon', '> 100 µM'),
  ('O=S1(=O)C[C@H](O)[C@H](O)CS1', 'KM20L2 colon', '> 100 µM'),
  ('N#Cc1nc(Nc2cccc3ccccc23)sc1N', 'KM20L2 colon', '> 100 µM'),
  ('CC(C)(C)[Si](OC1CC(n2cnc3c(N)ncnc32)OC1CO)(c1ccccc1)c1ccccc1 (stereo unspecified)', 'KM20L2 colon', '29.5 µM'),
  ('Cc1ccc(NC(=O)C(=O)C(C(=O)c2ccc3ccccc3c2)C2OC(=O)c3ccccc32)cc1C (stereo unspecified)', 'KM20L2 colon', '> 100 µM'),
  ('CN(C)c1ccc(C(C=C2c3ccccc3Sc3ccccc32)=C(C#N)C#N)cc1', 'KM20L2 colon', '> 100 µM'),
  ('COc1ccc(C(=O)C(c2ccc(OC)cc2)C2(O)C(=O)Nc3ccc([N+](=O)[O-])cc32)cc1 (stereo unspecified)', 'KM20L2 colon', '> 100 µM');

Return the recorded TGI value; entry: CCC[CH2][Sn]1([CH2]CCC)[O]N=C(c2ccccc2)C(c2ccccc2)[O]1 (stereo unspecified) 8.74 µM

---

System: UACC-257 melanoma
Test: NCI tumour cell line growth inhibition, 48 h
Assign GI50 to each entry below.

INSERT INTO results (molecule, reported_result) VALUES
  ('O=C(OC(CNc1cc(=O)n(Cc2ccccc2)c(=O)n1Cc1ccccc1)CN1CCCC1)c1ccccc1 (centres undefined)', '> 100 µM'),
  ('COc1cc(C2CC(c3cccc(Br)c3)=NN2C(C)=O)cc(OC)c1OC (centres undefined)', '25.3 µM'),
  ('CC(C)=CC/C=C(/C)[C@H]1CC[C@]2(C)[C@@H]1CC[C@@H]1[C@@]3(C)CCCNC(C)(C)[C@@H]3CC[C@]12C', '3.05 µM');

Consider the additional molecule presented here.
Return the recorded GI50 value; entry: COc1ccc(-n2cc(-c3cc(OC)c(OC)c(OC)c3)c(C(=O)C(F)(F)F)c2C)cc1 15.7 µM

---

Assign TGI to each entry below.
Test system: U251 CNS
Test: NCI tumour cell line growth inhibition, 48 h

These recorded examples may help you get a feel for the data.
INSERT INTO measurements (molecule, measured_metric, reported_result) VALUES
  ('CC1=CC(C)C/C=C/C2C3OC3(C)C(C)C3C(Cc4c[nH]c5ccccc45)NC(=O)C23C(=O)C=CC(=O)C1O (configuration not stated)', 'TGI', '43.2 µM'),
  ('CCCCS(=O)CCC(N)P(=O)(O)O (configuration not stated)', 'TGI', '> 100 µM'),
  ('O=C(O)CCC(=O)c1ccc[nH]1', 'TGI', '> 100 µM'),
  ('CCC(C)n1ncn(-c2ccc(N3CCN(c4ccc(OCC5COC(Cn6cncn6)(c6ccc(Cl)cc6Cl)O5)cc4)CC3)cc2)c1=O (configuration not stated)', 'TGI', '> 100 µM'),
  ('NC(=Nc1c([N+](=O)[O-])cnc2ccccc12)N1CCOCC1', 'TGI', '> 100 µM');

Please go through the list and note TGI for each molecule.
1. NC1CC(=O)c2c(Br)csc21 (configuration not stated)
2. Oc1c(C2=NNC(c3ccc(Cl)cc3Cl)C2)ccc2ccccc12 (configuration not stated)
3. OC[C@H]1C[C@](O)(c2ccc(Cl)cc2)[C@@H](c2ccc(Cl)cc2)O1
4. COCC1OC(Sc2ccccc2)C(O)C(OC)C1OC (configuration not stated)
5. OCC1OC(c2cccc3cc(O)c(O)cc23)CC1O (configuration not stated)
6. C=C1C(=O)OC2CCN3CC=C(COC(=O)C(C)(O)C4(CO4)C1C)C23 (configuration not stated)
7. COc1ccc(C2COc3cc(OC(C)=O)c(OC(C)=O)cc3C2)cc1 (configuration not stated)

1: 53.1 µM; 2: > 100 µM; 3: 69.5 µM; 4: > 100 µM; 5: > 100 µM; 6: > 100 µM; 7: 24.3 µM

Please go through the list and note TGI for each molecule.
1. O=Cc1cn(CCCCCCCCCCCCn2cc(C=O)c3ccccc32)c2ccccc12
2. O=C(O)CC1NC(/C(=C/c2ccccc2)NC(=O)c2ccccc2)OC1=O (configuration not stated)

> 100 µM
34.5 µM

Please go through the list and note TGI for each molecule.
1. COc1cc(N(CCC#N)CCC#N)ccc1/C(N=Nc1ccc([N+](=O)[O-])cc1)=N/NC(=O)c1cc(Br)ccc1O
2. CCCC(=O)n1[nH]c(=O)n(-c2ccc(Cl)cc2)c1=O
3. COc1cc(C#CC(=O)OC/C=C/c2ccc3c(c2)OCO3)cc(OC)c1OC
4. CCCCN(CCCC)CC(O)c1cc(-c2ccc(C(F)(F)F)cc2)nc(-c2ccc(C(F)(F)F)cc2)c1 (configuration not stated)
5. O=C(Nc1ccc(Cl)cc1F)c1ccccc1O
6. CCCC[C@@H]1CCN2C[C@@H](O)[C@@H](O)[C@@H]2[C@H]1O
7. CC1(C)COC(c2cccnc2/C=N/O)=N1
8. CCn1c(-c2nonc2N)nc2c(C#CC(C)(C)O)nc(OC[C@H](N)c3ccccc3)cc21

1: > 150 µg/mL; 2: > 100 µM; 3: > 100 µM; 4: > 100 µM; 5: > 100 µM; 6: > 100 µM; 7: > 100 µM; 8: 6.67 µM
